# Test description: in vitro
# Condition: human, hela cells, % viability
Label satisfied when viability at 28.5 h, 10 µM is strictly below 90%; at or above that, label not satisfied.

// query In the record for O=S(=O)(CCN1CCC2(CC1)CN(CCO)c1ccccc12)c1ccccc1 , is viability at 28.5 h, 10 µM less than 90%?
// result not satisfied

New cases:
// query In the record for CCOc1cccc(CNc2ccc(O)cc2)c1OCc1ccc(Cl)cc1Cl , is viability at 28.5 h, 10 µM less than 90%?
// result not satisfied

// query In the record for O=C(COC(=O)c1cc(S(=O)(=O)N2CCCCC2)ccc1Cl)c1ccccc1 , is viability at 28.5 h, 10 µM less than 90%?
// result satisfied

###

# Test description: in vitro
# Condition: human, hela cells, % viability
Metric name: viability at 28.5 h, 10 µM (%)
Respond numerically; units are % and should not be typed.

These recorded examples may help you get a feel for the data.
Noted for O=C1CC2(CCNCC2)Oc2c1ccc1ccccc21 [CBK282714] : its viability at 28.5 h, 10 µM reads 93

Noted for CC(Oc1ccccc1)C(=O)NCCN1CCOCC1 (centres unmarked) [CBK263812] : its viability at 28.5 h, 10 µM reads 94.1

Noted for CN(C)CCNC(=O)c1cccc(-c2cnc3[nH]c(=O)n(C4CCCCC4)c3n2)c1 [CBK064191] : its viability at 28.5 h, 10 µM reads 103

Noted for Cc1cccn2cc(CC(=O)OCC(=O)NC(C)(C)C)nc12 [CBK304966] : its viability at 28.5 h, 10 µM reads 110

Now let's try a different one.
Noted for O=C(CCSCc1nc2sc3c(c2c(=O)[nH]1)CCC3)N1CCC1 [CBK304536] : its viability at 28.5 h, 10 µM reads 75.7

###

Measured viability at 28.5 h, 10 µM accompanies every entry in the list below.
# Test description: in vitro
# Condition: human, hela cells, % viability, bulk resorufin, single well
Respond numerically; units are % and should not be typed.

These recorded examples may help you get a feel for the data.
Noted for O=C1NC(=O)C(CCc2ccccn2)(CCc2ccccn2)C(=O)N1c1cccc(C(F)(F)F)c1 [CBK269021] : its viability at 28.5 h, 10 µM reads 99.8

Noted for O=C1NC(=S)N(Cc2ccco2)C(=O)/C1=C\c1cn(CCOc2ccc(F)cc2)c2ccccc12 [CBK265573] : its viability at 28.5 h, 10 µM reads 80.9

Noted for CC(=O)N1CCC2(CC1)OCc1cc(-c3cncc4ccccc34)ccc1O2 [CBK061010] : its viability at 28.5 h, 10 µM reads 90.4

Noted for COc1ccccc1N1C(=O)NC(=O)/C(=C/NCCCO)C1=O [CBK261618] : its viability at 28.5 h, 10 µM reads 87.8

Now let's try a different one.
Noted for CCN(CC)CCNC(=O)CN1CCCC1=O [CBK261312] : its viability at 28.5 h, 10 µM reads 84.6

###

# Test description: in vitro
# Condition: human, hela cells, % viability
Label Condition met when viability at 28.5 h, 10 µM is strictly below 90%; at or above that, label Condition not met.

// query In the record for O=C(O)CCC/N=C1/CCCc2ccccc2N1 , is viability at 28.5 h, 10 µM less than 90%?
// result Condition not met

// query In the record for OC(COc1cccc(Oc2ccccc2)c1)CN1CCN(c2ccccc2F)CC1 (stereo not shown) , is viability at 28.5 h, 10 µM less than 90%?
// result Condition not met

// query In the record for CCOC(=O)C1CC1CN1CCN(S(=O)(=O)c2ccc(OCC)c3ncccc23)CC1 (stereo not shown) , is viability at 28.5 h, 10 µM less than 90%?
// result Condition not met

// query In the record for CCc1nc2cccnc2n1CCNC(=O)c1cccs1 , is viability at 28.5 h, 10 µM less than 90%?
// result Condition not met

// query In the record for O=C(Cc1cccc2ccccc12)NC(NC(=S)Nc1ccccc1Br)C(Cl)(Cl)Cl (stereo not shown) , is viability at 28.5 h, 10 µM less than 90%?
// result Condition not met

New cases:
// query In the record for N#C/C(=C/c1ccc(OCc2ccc(C(=O)O)cc2)cc1)C(=O)Nc1ccc(Cl)cc1 , is viability at 28.5 h, 10 µM less than 90%?
// result Condition not met

// query In the record for Cc1ccc(SCCNC(=O)COc2ccc(Cl)cc2Cl)cc1 , is viability at 28.5 h, 10 µM less than 90%?
// result Condition met

// query In the record for O=C(Nc1cccc(Cl)c1Cl)c1cnccn1 , is viability at 28.5 h, 10 µM less than 90%?
// result Condition not met

// query In the record for O=C(COc1ccccc1[N+](=O)[O-])Nc1cnc(-c2cccc(C(F)(F)F)c2)c(-c2ccco2)n1 , is viability at 28.5 h, 10 µM less than 90%?
// result Condition met

###

# Test description: in vitro
# Condition: human, hela cells, % viability
Metric name: viability at 28.5 h, 10 µM (%)
Respond numerically; units are % and should not be typed.

Noted for Cn1cc(CC(=O)NCc2ccc(OC3CCNCC3)cc2)c2ccccc21 [CBK028430T] : its viability at 28.5 h, 10 µM reads 92.8

Noted for CCCN(C)Cc1ccc(-c2nnn(CC(=O)NCc3ccc(CC)cc3)n2)cc1NC(C)=O [CBK164703] : its viability at 28.5 h, 10 µM reads 105

Noted for C=CCn1c(SC(C)C(=O)O)nnc1-c1ccc(OC)cc1 (centres unmarked) [CBK268958] : its viability at 28.5 h, 10 µM reads 91.1

Noted for C#CCNS(=O)(=O)c1cccc(C(=O)NCC2CCCN(C(C)C)C2)c1 (centres unmarked) [CBK305981] : its viability at 28.5 h, 10 µM reads 109

Noted for CC(C)n1c(NCc2ccccc2)nc2c1c(=O)n(C)c(=O)n2C [CBK140094] : its viability at 28.5 h, 10 µM reads 78.2

Noted for O=C(O)c1ccc(NS(=O)(=O)c2cc(F)c(Br)cc2F)cc1 [CBK034045] : its viability at 28.5 h, 10 µM reads 101

New cases:
Noted for CC(C)(C)c1nc(CN2CCOCC2)ccc1O [CBK026614C] : its viability at 28.5 h, 10 µM reads 112

Noted for COC(=O)c1ccc(NC(=O)CN(c2ccc(F)c(Cl)c2)S(C)(=O)=O)cc1 [CBK267657] : its viability at 28.5 h, 10 µM reads 88.3

Noted for Fc1cccc(NCc2ccccc2)n1 [CBK000149] : its viability at 28.5 h, 10 µM reads 94.9

Noted for O=C(O)C1C2C=CC(C2)C1C(=O)N1CCN(Cc2ccc(Cl)cc2)CC1 (centres unmarked) [CBK270318] : its viability at 28.5 h, 10 µM reads 83.8

Noted for Oc1cnnc(Nc2ccc(Nc3ccccc3)cc2)n1 [CBK287921] : its viability at 28.5 h, 10 µM reads 101

Noted for c1ccc2c(c1)CC(Oc1cncc(N3CCNCC3)n1)C2 [CBK000242G] : its viability at 28.5 h, 10 µM reads 106

###

# Test description: in vitro
# Condition: human, hela cells, % viability
Metric name: viability at 28.5 h, 10 µM (%)
Respond numerically; units are % and should not be typed.

Noted for NC(=O)COc1cccc(/C=C2/SC(Nc3cccc(C(=O)O)c3)=NC2=O)c1 [CBK265027] : its viability at 28.5 h, 10 µM reads 104

Now let's try a different one.
Noted for CCCCn1c(SCc2nc(-c3ccncc3)no2)nc2ccsc2c1=O [CBK288576] : its viability at 28.5 h, 10 µM reads 87

###

# Test description: in vitro
# Condition: human, hela cells, % viability
Measured viability at 28.5 h, 10 µM accompanies every entry in the list below.
Could you give the number and then its unit, please?

These recorded examples may help you get a feel for the data.
Noted for CCn1c(SCC(=O)NC2CC2)nc2ccccc21 : its viability at 28.5 h, 10 µM reads 117%

Noted for Cc1nc(COc2ccc(C(=O)Nc3ccc(C(=O)O)cc3C)cc2)cs1 : its viability at 28.5 h, 10 µM reads 91.3%

Noted for O=C(c1ccncc1)N1Cc2ccccc2C1 : its viability at 28.5 h, 10 µM reads 103%

Noted for CC(NC(=O)c1ccccc1Cn1cncn1)C1CC2CCC1C2 (stereo not shown) : its viability at 28.5 h, 10 µM reads 85.8%

New cases:
Noted for O=C(N/N=C\c1ccc(-c2ccc(Cl)c(Cl)c2)o1)C1COc2cc3ccccc3cc2O1 (stereo not shown) : its viability at 28.5 h, 10 µM reads 99%

Noted for CC(=O)Nc1ccc(-c2ccc(C(=O)NCCc3ccc(O)cc3)cn2)cc1 : its viability at 28.5 h, 10 µM reads 105%

Noted for CC(Sc1ccccn1)C(=O)Nc1ccc(S(N)(=O)=O)cc1 (stereo not shown) : its viability at 28.5 h, 10 µM reads 97.1%

Noted for CCOCC(=O)N(C)C(CO)c1cc(OC)ccc1Br (stereo not shown) : its viability at 28.5 h, 10 µM reads 90%

Noted for Fc1cccc(-c2cncc(NCCc3c[nH]c4ccccc34)n2)c1 : its viability at 28.5 h, 10 µM reads 94.7%

Noted for O=C(CC12CC3CC(CC(C3)C1)C2)Nc1nc[nH]n1 : its viability at 28.5 h, 10 µM reads 117%
